System: DU-145 prostate
PROTOCOL SUMMARY: NCI-60 one-dose screen, 48 h
ASSAY SETUP: 10 µM unless noted
About 83,000 compounds went through this panel and 20% of them were active in at least one assay; those are over-represented in the sample as a whole. Calls of active or inactive are those of the source. Rule for the calls: active = growth percent below 10; inactive = the rest.
// one of T for active, F for inactive, no free text

Req: For `COC(=O)c1c2c(c(C)[n+]([O-])c1C)C(=O)C=C(NCc1ccc(OC)cc1)C2=O` , what call appears in the results of this test?
Resp: T

Req: I would be grateful if you could indicate the recorded call for `O=C1/C(=C\c2cn(-c3ccccc3)nc2-c2ccc(-c3cccs3)cc2)CCc2ccccc21` .
Resp: F

Req: Call for entry `Cc1cc(Cl)ccc1Nc1nc(C(F)(F)F)ccc1C(=O)N/N=C/c1ccc([N+](=O)[O-])cc1` :
Resp: T

Req: Lab log entry: Cc1ccc(C2=Nc3c(N)ncnc3NC(c3ccc4c(c3)OCO4)C2)cc1 (configuration not stated) — outcome as called in the assay?
Resp: F

Req: Recorded test call requested for `COc1cc(OC)c2sc(-c3ccc(-n4cncc4-c4ccc(OC)c(OC)c4)cc3)nc2c1`
Resp: T

Req: What did this assay record as the result for `COc1ccc(C(=S)N2CCN(c3ccccc3Cl)CC2)cc1OC` ?
Resp: F

Req: Identify the outcome logged in this assay for the molecule shown: `CCOC(=O)C1=C(NC)OCC1=O`
Resp: F

Req: Could you kindly confirm the outcome this assay logged for `C/C(=N/O)c1ccc(F)cc1` ?
Resp: T

Req: I'd appreciate the recorded outcome for `C#Cc1ccc(NC(=O)c2ccc(/C=C/C(=O)c3nccn3C)cc2)cc1` from this test.
Resp: T

Req: What did this assay record as the result for `COc1ccc(C(=O)Nc2ncc(Cc3cccc(Cl)c3)s2)cc1OC` ?
Resp: F

Req: Status in this test for `COc1ccc(-c2csc(NC(=O)CSc3nc(-c4ccccc4)cc(=O)[nH]3)n2)cc1` ?
Resp: F

Req: Would you mind telling me which call this test gave `O=C1/C(=C/c2ccc(F)cc2)COc2ccc(O)c(O)c21` ?
Resp: F

Req: So what was the verdict on `Fc1cccc(CNc2c3ccccc3nc3ccccc23)c1F` in this test?
Resp: F

Req: Would you mind telling me which call this test gave `COCCn1cc(-c2nc(-c3cc4cccnc4n3CCOC)cs2)c2cc(OC)ccc21` ?
Resp: F

Req: Called result for `Cc1ccc(/C=N/Nc2nc(Nc3ccccc3)nc(-n3nc(C)cc3C)n2)cc1`
Resp: F

Req: Lab log entry: `O=c1oc2ccc([N+](=O)[O-])cc2cc1Br` — outcome as called in the assay?
Resp: F

Req: I would be grateful if you could indicate the recorded call for `Cc1nn(-c2ccccc2)c(Oc2ccccn2)c1-c1nc2ccccc2s1` .
Resp: F

Req: Returns: the outcome recorded for `Cc1cccc2c1NC(=O)C2(c1ccc(O)cc1)c1ccc(O)cc1` in this assay.
Resp: F

Req: Entry O=S(=O)(Nc1ccccc1)c1ccc(C2CC3(Cl)C(Cl)=C(Cl)C2(Cl)C3(Cl)Cl)cc1 (configuration not stated) : call = ?
Resp: F

Req: Please share the test call associated with `CCNc1cc(-c2cccc(OC(F)(F)F)c2)nc2ccc(N3CCCC3)cc12` .
Resp: F

Req: Answer briefly: the call reported for `N#C/C(=C/c1ccc([N+](=O)[O-])cc1)n1nnc2cc(F)c(F)cc21` in this assay.
Resp: F

Req: Just curious, what result did `Cc1nc2sc(C(=O)Nc3ccccc3)c(N)c2cc1C(=O)c1ccccc1` get here?
Resp: F

Value source: PubChem BioAssay (NCI)
